measurement_target: UniProt P45983
Sequence (P45983 1-384 isoform P45983-2): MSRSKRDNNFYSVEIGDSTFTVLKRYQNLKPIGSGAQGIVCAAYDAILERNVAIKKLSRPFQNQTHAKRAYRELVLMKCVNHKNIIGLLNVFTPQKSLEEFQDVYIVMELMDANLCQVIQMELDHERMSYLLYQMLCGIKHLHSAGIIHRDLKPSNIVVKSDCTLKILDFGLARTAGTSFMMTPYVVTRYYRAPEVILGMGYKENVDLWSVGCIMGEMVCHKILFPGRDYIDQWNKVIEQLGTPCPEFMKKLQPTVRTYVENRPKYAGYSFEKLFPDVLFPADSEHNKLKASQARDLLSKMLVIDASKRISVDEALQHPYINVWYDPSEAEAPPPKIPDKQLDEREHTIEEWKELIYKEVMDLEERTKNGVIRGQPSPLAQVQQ
protocol_notes: KINOMEscan competition binding assay, JNK1
Design: M1/Q384; host or cells: HEK-293
run_parameters: ratio PoC (off-target)/PoC (MKK4)
reported_metric: selectivity based on % Ctrl @100 nM vs. JNK1

{"columns": ["compound", "measured_result"],
 "data": [
  ["CCCS(=O)(=O)Nc1ccc(F)c(C(=O)c2c[nH]c3ncc(-c4ccn[nH]4)cc23)c1F [Example 84]", "+++ (Ratio > 100)"],
  ["CCCS(=O)(=O)Nc1ccc(F)c(C(=O)c2c[nH]c3ncc(-c4cccnc4)cc23)c1F [Example 58]", "+++ (Ratio > 100)"],
  ["CCCS(=O)(=O)Nc1ccc(F)c(C(=O)c2c[nH]c3ncc(-c4ccc(F)cc4F)cc23)c1F [Example 33]", "++ (100 ≥ ratio > 10)"],
  ["CCCS(=O)(=O)Nc1cccc(C(=O)c2c[nH]c3ncc(-c4ccc(Cl)cc4)cc23)c1C#N [Example 63]", "◯ (3 ≥ Ratio)"],
  ["CCCS(=O)(=O)Nc1ccc(F)c(C(=O)c2c[nH]c3ncc(-c4cccc(Cl)c4)cc23)c1F [Example 32]", "+ (10 ≥ ratio > 3)"],
  ["CCCS(=O)(=O)Nc1ccc(F)c(C(=O)c2c[nH]c3ncc(-c4cnc[nH]4)cc23)c1F [Example 83]", "+++ (Ratio > 100)"],
  ["O=C(c1ccc(F)c(NS(=O)(=O)CCC(F)(F)F)c1F)c1c[nH]c2ncc(-c3cnc(N4CCCC4)nc3)cc12 [Example 179]", "+++ (Ratio > 100)"],
  ["CCCS(=O)(=O)Nc1ccc(F)c(C(=O)c2c[nH]c3ncc(C4CCNCC4)cc23)c1F [Example 241]", "+ (10 ≥ ratio > 3)"],
  ["O=C(c1c(F)ccc(NS(=O)(=O)CCC(F)(F)F)c1F)c1c[nH]c2ncc(-c3ccc(N4CCS(=O)(=O)CC4)nc3)cc12 [Example 81]", "+++ (Ratio > 100)"],
  ["CCCS(=O)(=O)Nc1ccc(F)c(C(=O)c2c[nH]c3ncc(-c4cccnn4)cc23)c1F [Example 48]", "++ (100 ≥ ratio > 10)"],
  ["CCCS(=O)(=O)Nc1ccc(F)c(C(=O)c2c[nH]c3ncc(-c4c[nH]c(=O)cn4)cc23)c1F [Example 88]", "+++ (Ratio > 100)"],
  ["CCCNS(=O)(=O)c1cccc(C(=O)c2c[nH]c3ncc(Br)cc23)c1 [Example 14]", "◯ (3 ≥ Ratio)"],
  ["C#Cc1cnc2[nH]cc(C(=O)c3c(F)ccc(NS(=O)(=O)CCC)c3F)c2c1 [Example 18]", "+ (10 ≥ ratio > 3)"],
  ["CCCS(=O)(=O)Nc1ccc(F)c(C(=O)c2c[nH]c3ncc(-c4ccc([N+](=O)[O-])cc4)cc23)c1F [Example 107]", "++ (100 ≥ ratio > 10)"],
  ["CCCS(=O)(=O)Nc1c(F)ccc(C(=O)c2c[nH]c3ncc(-c4ccc(C5CC5)nc4)cc23)c1F [Example 159]", "+++ (Ratio > 100)"]
]}

----------
measurement_target: MKK7 (Homo sapiens, UniProt O14733)
Sequence (O14733 1-419): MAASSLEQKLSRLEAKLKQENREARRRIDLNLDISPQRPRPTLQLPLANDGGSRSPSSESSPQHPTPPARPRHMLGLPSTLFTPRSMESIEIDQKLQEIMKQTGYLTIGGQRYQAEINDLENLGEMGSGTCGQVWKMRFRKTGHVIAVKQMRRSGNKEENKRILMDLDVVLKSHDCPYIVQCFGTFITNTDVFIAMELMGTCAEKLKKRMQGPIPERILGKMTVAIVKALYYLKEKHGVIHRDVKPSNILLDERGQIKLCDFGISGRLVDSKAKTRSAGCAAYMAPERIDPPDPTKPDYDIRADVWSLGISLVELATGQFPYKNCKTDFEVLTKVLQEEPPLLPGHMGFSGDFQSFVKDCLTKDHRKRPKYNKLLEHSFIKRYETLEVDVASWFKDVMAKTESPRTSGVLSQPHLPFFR
protocol_notes: KINOMEscan competition binding assay, MKK7
Parameters: M1/R419; host or cells: HEK-293
run_parameters: ratio PoC (off-target)/PoC (MKK4)
reported_metric: selectivity based on % Ctrl @100 nM vs. MKK7

{"columns": ["compound", "measured_result"],
 "data": [
  ["CCCS(=O)(=O)Nc1ccc(F)c(C(=O)c2c[nH]c3ncc(-c4ccc(C(F)(F)F)cc4)cc23)c1F [Example 106]", "+ (10 ≥ ratio > 3)"],
  ["CCCS(=O)(=O)Nc1cccc(C(=O)c2c[nH]c3ncc(-c4ccc(Cl)cc4)cc23)c1C#N [Example 63]", "◯ (3 ≥ Ratio)"],
  ["CCCS(=O)(=O)Nc1ccc(F)c(C(=O)c2c[nH]c3ncc(-c4nncs4)cc23)c1F [Example 86]", "++ (100 ≥ ratio > 10)"],
  ["O=C(c1cccc(NS(=O)(=O)Cc2ccccc2)c1F)c1c[nH]c2ncc(-c3ccncc3)cc12 [Example 129]", "+++ (Ratio > 100)"],
  ["CCCCS(=O)(=O)Nc1ccc(F)c(C(=O)c2c[nH]c3ncc(-c4ccc(OC)cc4Cl)cc23)c1F [Example 21]", "++ (100 ≥ ratio > 10)"],
  ["CCCS(=O)(=O)Nc1ccc(F)c(C(=O)c2c[nH]c3ncc(-c4ccc(N5CCN(C(C)=O)CC5)cc4)cc23)c1F [Example 24]", "++ (100 ≥ ratio > 10)"],
  ["CCCS(=O)(=O)Nc1c(F)ccc(C(=O)c2c[nH]c3ncc(-c4cnc(Cl)cn4)cc23)c1F [Example 211]", "+++ (Ratio > 100)"],
  ["CCCS(=O)(=O)Nc1c(F)ccc(C(=O)c2c[nH]c3ncc(-c4ccc(C(F)(F)F)nc4)cc23)c1F [Example 230]", "+++ (Ratio > 100)"],
  ["CCCS(=O)(=O)Nc1ccc(F)c(C(=O)c2c[nH]c3ncc(-c4ccn[nH]4)cc23)c1F [Example 84]", "+++ (Ratio > 100)"],
  ["CCCS(=O)(=O)Nc1c(F)ccc(C(=O)c2c[nH]c3ncc(-c4ccc(NC)nc4)cc23)c1F [Example 160]", "+++ (Ratio > 100)"],
  ["CCCS(=O)(=O)Nc1ccc(F)c(C(=O)c2c[nH]c3ncc(C4CCNCC4)cc23)c1F [Example 241]", "+ (10 ≥ ratio > 3)"],
  ["CCCS(=O)(=O)Nc1ccc(F)c(C(=O)c2c[nH]c3ncc(-c4cnc[nH]4)cc23)c1F [Example 83]", "+++ (Ratio > 100)"],
  ["O=C(c1c(F)ccc(NS(=O)(=O)CCC(F)(F)F)c1F)c1c[nH]c2ncc(-c3ccc(N4CCS(=O)(=O)CC4)nc3)cc12 [Example 81]", "+++ (Ratio > 100)"],
  ["CCCS(=O)(=O)Nc1cc(Br)cc(C(=O)c2c[nH]c3ncc(-c4ccc(Cl)cc4)cc23)c1 [Example 13]", "◯ (3 ≥ Ratio)"],
  ["O=C(c1ccc(F)c(NS(=O)(=O)CCC(F)(F)F)c1F)c1c[nH]c2ncc(-c3cnc(N4CCCC4)nc3)cc12 [Example 179]", "+++ (Ratio > 100)"],
  ["CCCS(=O)(=O)Nc1c(F)ccc(C(=O)c2c[nH]c3ncc(-c4ccc(C5CC5)nc4)cc23)c1F [Example 159]", "+++ (Ratio > 100)"],
  ["Cc1cccc(CS(=O)(=O)Nc2ccc(F)c(C(=O)c3c[nH]c4ncc(-c5ccc(Cl)cc5)cc34)c2F)c1 [Example 37]", "+ (10 ≥ ratio > 3)"],
  ["CCCS(=O)(=O)Nc1ccc(F)c(C(=O)c2c[nH]c3ncc(-c4cc[nH]c4)cc23)c1F [Example 100]", "++ (100 ≥ ratio > 10)"],
  ["CCCS(=O)(=O)Nc1ccc(F)c(C(=O)c2c[nH]c3ncc(-c4ccc(OC)cc4OC)cc23)c1F [Example 104]", "++ (100 ≥ ratio > 10)"],
  ["O=C(c1c(F)ccc(NS(=O)(=O)CCCO)c1F)c1c[nH]c2ncc(-c3ccc(Cl)cc3)cc12 [Example 67]", "◯ (3 ≥ Ratio)"],
  ["CCCS(=O)(=O)Nc1ccc(F)c(C(=O)c2c[nH]c3ncc(-c4ccc(OCC5COC(C)(C)O5)cc4Cl)cc23)c1F (centres unmarked) [Example 25]", "+ (10 ≥ ratio > 3)"],
  ["CCCS(=O)(=O)Nc1cc(Cl)cc(C(=O)c2c[nH]c3ncc(-c4ccc(Cl)cc4)cc23)c1 [Example 16]", "◯ (3 ≥ Ratio)"],
  ["O=C(c1c(F)ccc(NS(=O)(=O)Cc2ccccc2)c1F)c1c[nH]c2ncc(-c3ccc(OCC(O)CO)cc3)cc12 (centres unmarked) [Example 40]", "+++ (Ratio > 100)"],
  ["CCCS(=O)(=O)Nc1ccc(F)c(C(=O)c2c[nH]c3ncc(-c4ccc5ccoc5c4)cc23)c1F [Example 52]", "++ (100 ≥ ratio > 10)"],
  ["O=C(c1cccc(NS(=O)(=O)Cc2ccccc2)c1F)c1c[nH]c2ncc(-c3cc4c(cc3Cl)OCO4)cc12 [Example 128]", "++ (100 ≥ ratio > 10)"],
  ["O=C(c1c(F)ccc(NS(=O)(=O)Cc2ccccc2)c1F)c1c[nH]c2ncc(-c3ccc(OCC(O)CO)cc3Cl)cc12 (centres unmarked) [Example 41]", "++ (100 ≥ ratio > 10)"],
  ["Cc1ccc(CS(=O)(=O)Nc2ccc(F)c(C(=O)c3c[nH]c4ncc(-c5ccc(Cl)cc5)cc34)c2F)cc1 [Example 38]", "+ (10 ≥ ratio > 3)"],
  ["CCCS(=O)(=O)Nc1ccc(F)c(C(=O)c2c[nH]c3ncc(-c4ccc(OCC5COC(C)(C)O5)cc4)cc23)c1F (centres unmarked) [Example 29]", "++ (100 ≥ ratio > 10)"],
  ["CCCS(=O)(=O)Nc1ccc(C#N)c(C(=O)c2c[nH]c3ncc(-c4ccc(Cl)cc4)cc23)c1C#N [Example 62]", "◯ (3 ≥ Ratio)"]
]}
